The following compounds are shown together with reported pIC50 values.
# tested_on: KRAS WT (Homo sapiens, UniProt P01116+P62937)
# Sequence (P01116 1-169 isoform P01116-2 limits assumed): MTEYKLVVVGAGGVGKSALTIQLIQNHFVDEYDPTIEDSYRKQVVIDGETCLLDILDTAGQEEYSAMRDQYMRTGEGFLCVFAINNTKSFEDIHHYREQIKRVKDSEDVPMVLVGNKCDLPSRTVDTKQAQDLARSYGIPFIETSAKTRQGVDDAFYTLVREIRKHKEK
# Sequence (P62937 whole entry): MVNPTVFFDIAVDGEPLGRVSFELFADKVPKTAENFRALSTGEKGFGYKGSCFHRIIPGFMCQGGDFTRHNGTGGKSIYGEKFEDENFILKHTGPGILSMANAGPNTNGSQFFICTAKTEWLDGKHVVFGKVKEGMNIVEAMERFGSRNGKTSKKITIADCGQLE
# test_summary: Ras-Raf disruption / FRET / MOA assay (BRAF RBD)
# Format: biochemical
# study_conditions: KRAS WT FRET data IC50, Ras-Raf disruption, with Cyclophilin A
pIC50: −log10 of the molar value.

Below, 8 compounds whose answers are already recorded.
compound | data_value
CCn1c(-c2cccnc2[C@H](C)OC)c2c3cc(ccc31)-c1cc(O)cc(c1)C[C@H](NC(=O)[C@H](C(C)C)N(C)C(=O)[C@H]1CCCN1C(=O)[C@@H]1CN1)C(=O)N1CCC[C@H](N1)C(=O)OCC(C)(C)C2 | 6.00 to 7.00
CCn1c(-c2cccnc2[C@H](C)OC)c2c3cc(ccc31)-c1cc(O)cc(c1)C[C@H](NC(=O)[C@H](C(C)C)N(C)C(=O)CN(C)C(=O)[C@H]1CN1CC1COC1)C(=O)N1CCC[C@H](N1)C(=O)OCC(C)(C)C2 (stereo partly drawn) | 6.00 to 7.00
CCn1c(-c2cccnc2[C@H](C)OC)c2c3cc(ccc31)-c1cc(O)cc(c1)C[C@H](NC(=O)[C@H](C1CCCC1)N(C)C(=O)CN(C)C(=O)[C@H]1[C@@H](C3CC3)N1CCCOC)C(=O)N1CCC[C@H](N1)C(=O)OCC(C)(C)C2 (stereo partly drawn) | 7.00 to 8.00
CCn1c(-c2cccnc2[C@H](C)OC)c2c3cc(ccc31)-c1cc(O)cc(c1)C[C@H](NC(=O)[C@H](C(C)C)N(C)C(=O)CNC(=O)[C@H]1CN1)C(=O)N1CCC[C@H](N1)C(=O)OCC(C)(C)C2 | 7.00 to 8.00
CCn1c(-c2cccnc2[C@H](C)OC)c2c3cc(ccc31)-c1cccc(c1)C[C@H](NC(=O)[C@H](C(C)C)N(C)C(=O)CN(C)C(=O)[C@H]1CN1)C(=O)N1CCC[C@H](N1)C(=O)OCC(C)(C)C2 | 5.00 to 6.00
CCn1c(-c2cccnc2[C@H](C)OC)c2c3cc(ccc31)-c1cc(O)cc(c1)C[C@H](NC(=O)[C@H](C(C)C)N(C)C(=O)CN(C)C(=O)[C@@H]1CN1CCCOC)C(=O)N1CCC[C@H](N1)C(=O)OCC(C)(C)C2 (stereo partly drawn) | 7.00 to 8.00
CCn1c(-c2cccnc2[C@H](C)OC)c2c3cc(ccc31)-c1cc(O)cc(c1)C[C@H](NC(=O)[C@H](C(C)C)N(C)C(=O)CN(C)C(=O)[C@@H]1N[C@@H]1C1CC1)C(=O)N1CCC[C@H](N1)C(=O)OCC(C)(C)C2 | 7.00 to 8.00
CCn1c(-c2cccnc2[C@H](C)OC)c2c3cc(ccc31)-c1cc(O)cc(c1)C[C@H](NC(=O)[C@H](C(C)C)N(C)C(=O)CN(C)C(=O)[C@@H]1N[C@H]1COC)C(=O)N1CCC[C@H](N1)C(=O)OCC(C)(C)C2 | 7.00 to 8.00

From here, focus on the item given below.
q: Need pIC50 of CCn1c(-c2cccnc2[C@H](C)OC)c2c3cc(ccc31)-c1cc(O)cc(c1)C[C@H](NC(=O)[C@H](C(C)C)N(C)C(=O)CN(C)C(=O)[C@@H]1CN1CCOC)C(=O)N1CCC[C@H](N1)C(=O)OCC(C)(C)C2 (stereo partly drawn) , thanks.
a: 7.00 to 8.00
